Molecular target: UniProt:O75460
Sequence (O75460 469-977): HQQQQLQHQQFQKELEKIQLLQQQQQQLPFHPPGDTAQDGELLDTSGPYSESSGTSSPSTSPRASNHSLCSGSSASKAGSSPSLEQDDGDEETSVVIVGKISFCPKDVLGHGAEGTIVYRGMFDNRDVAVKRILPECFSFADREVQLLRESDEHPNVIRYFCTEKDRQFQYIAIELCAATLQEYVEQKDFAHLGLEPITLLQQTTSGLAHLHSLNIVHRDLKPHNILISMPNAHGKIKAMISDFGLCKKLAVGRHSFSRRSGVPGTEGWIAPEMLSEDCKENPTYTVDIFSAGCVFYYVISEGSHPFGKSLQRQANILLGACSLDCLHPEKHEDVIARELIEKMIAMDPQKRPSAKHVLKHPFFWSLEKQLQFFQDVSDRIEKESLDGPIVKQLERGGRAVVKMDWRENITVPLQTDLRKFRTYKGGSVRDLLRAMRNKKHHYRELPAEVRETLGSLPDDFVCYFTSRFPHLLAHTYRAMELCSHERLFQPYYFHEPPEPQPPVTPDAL
Assay: fluorescent XBP1 mini-substrate RNase assay with recombinant IRE1α*
property name: IC50 (nM)

>>> obs_value("CC(C)(C)c1nc(-c2ccc(NC(=O)Nc3cccc(C(F)(F)F)c3)c3ccccc23)c2c(N)nccn12")
40.1

Values from paper PMC5497784
